- subject_of_test: T1, glycolaldehyde (GA)-modified bovine serum albumin (Bos taurus, UniProt P02769, modified by glycolaldehyde (GA-pyridine forms on the ε-amino group of Lys residues); sites not given)
- T1 construct: bovine serum albumin; The scFvs are directed against GA-pyridine, a modified lysine; also called GA-BSA; source: BSA (25 mg/mL) incubated with 50 mM glycolaldehyde at 37 °C for 12 h, dialysed with PBS
- method_summary: ELISA; phage ELISA: GA-BSA coated on a 96-well plate, scFv display phage clones added for 1 h at 25 °C, detected with HRP-conjugated anti-M13 antibody
- condition_set: one partner purified
property_label: binding result

73MuL-V94A displayed on phage (scFv, V domains shown, as the VH of m1 (AGE73scFv); (Gly-Gly-Gly-Gly-Ser)3 linker; as the VL of m1 (AGE73scFv) with V94A; probably Kabat; source: second library, error-prone PCR of the VL of AGE73scFv) VH: QVKLQQSGPSLVKPSQTLSLTCSVTGDSITSGYWNWIRKFPGNKFEYLGYISYSGRTYYNPSLKSRISITRDTSKNQYYLQLNSVTTEDTATYYCSRPYYRYDYAIDYWGQGTTVTVSS VL: DIELTQSPAIMSASLGERVTMTCTASSSVSSSYLHWYQQKPGSSPKLWIYSTSNLASGVPARFSSSGSGTSYSLTISRMEAEDAATYYCQQSRKAPYTFGGGTKLEIK ... binds
AGE112scFv displayed on phage (scFv, V domains shown, VH of AGE112scFv; (Gly-Gly-Gly-Gly-Ser)3 linker; VL of AGE112scFv) VH: QVKLQESGPSLVKPSQTLSLTCSVTGDSITSGYWNWIRKFPGNKFEYLGYISYSGRTYYNPSLKSRISITRDTSKNQYYLQLNSVTTEDTATYYCSRPYYRYDYAIDYWGQGTTVTVSS VL: DIELTQSPTTMAASPGEKITITCSASSSISSNYLHWYQQKPGFSPKLLIYSTSNLASGVPARFSGSGSGTSYSLTISSMEAEDAATYYCQQWSSNPYTFGGGTKLEIK ... binds
73MuL-S56P displayed on phage (scFv, V domains shown, as the VH of m1 (AGE73scFv); (Gly-Gly-Gly-Gly-Ser)3 linker; as the VL of m1 (AGE73scFv); probably Kabat; source: second library, error-prone PCR of the VL of AGE73scFv) VH: QVKLQQSGPSLVKPSQTLSLTCSVTGDSITSGYWNWIRKFPGNKFEYLGYISYSGRTYYNPSLKSRISITRDTSKNQYYLQLNSVTTEDTATYYCSRPYYRYDYAIDYWGQGTTVTVSS VL: DIELTQSPAIMSASLGERVTMTCTASSSVSSSYLHWYQQKPGSSPKLWIYSTSNLAPGVPARFSSSGSGTSYSLTISRMEAEDAATYYCQQSRKVPYTFGGGTKLEIK ... binds
